Conditions: 298.15 K; 101.3 kPa
± gives the uncertainty stated by the source.
Here, each record is paired with measured viscosity data.
Kindly write the number and append the unit.

Look up viscosity: "c1ccccc1"
0.609 ± 0.0056 mPa·s

If you can, please state the reported viscosity value of "O=[N+]([O-])c1ccccc1" .
1.773 ± 0.042 mPa·s

Returns the measured viscosity for the input compound. Input: "CCCCCO"
3.302 ± 0.04 mPa·s

Looking for the measured viscosity of "CN(C)C=O" , can you help?
0.792 ± 0.021 mPa·s

###

Settings: 303.15 K; 100 kPa
readout.type: viscosity (mPa·s)
API: value field is a number in mPa·s; no unit string.

Past entries and their recorded results:
CCCCCCCCCCCCCC[P+](CCCCCC)(CCCCCC)CCCCCC.N#C[N-]C#N	331
O=[N+]([O-])c1ccccc1	1.755
CCn1cc[n+](CCOC)c1.O=S(=O)([N-]S(=O)(=O)C(F)(F)F)C(F)(F)F	29.33
CC12CC3CC(C)(C1)CC(C)(C3)C2	2.147
CCCCCCCC	0.452

Next compound, please.
Data request, read-out viscosity, for C1CCC2CCCCC2C1 (stereo unspecified)
2.07

###

Experiment: xn = mol fraction of the nth substance listed
Details: 298.15 K; 101 kPa; x2 = 0.7
± gives the uncertainty stated by the source.
readout.type: viscosity
Reply with the number and its unit after it.

C=C(C)C(=O)O + O=C1CCCCC1	1.999 ± 0.046 mPa·s

Can you share its viscosity? I mean this compound: c1ccccc1 + CO
0.56 ± 0.01 mPa·s

Which viscosity value belongs to CN(C)C=O + CCO ?
0.852 ± 0.012 mPa·s

Could you share which viscosity value was measured for O=[N+]([O-])c1ccccc1 + CS(C)=O ?
1.975 ± 0.019 mPa·s

###

Documented log10 viscosity across a set of compounds
Details: 318.15 K; 100 kPa
// stored as log10 of viscosity expressed in mPa·s

// worked examples, log10 viscosity included
O=[N+]([O-])c1ccccc1	0.15
CCCCCCCCCCCCCC[P+](CCCCCC)(CCCCCC)CCCCCC.N#C[N-]C#N	2.19
CN(C)C=O	-0.19

Record request: log10 viscosity value, item "CCn1cc[n+](CCOC)c1.O=S(=O)([N-]S(=O)(=O)C(F)(F)F)C(F)(F)F"
1.26

Value lookup for log10 viscosity; key = "CC12CC3CC(C)(C1)CC(C)(C3)C2"
0.21

What value of log10 viscosity has been recorded for this entry: "CCCCCO"
0.32

###

Assay: xn = mol fraction of the nth substance listed
Conditions: 298.15 K; 101 kPa; x2 = 0.1
readout.type: viscosity (mPa·s)
Reply numerically in mPa·s, unit not repeated.

Worked cases, viscosity given:
O=[N+]([O-])c1ccccc1 + COc1ccccc1	1.556
C=C(C)C(=O)O + O=C1CCCCC1	1.369

Could you tell me which viscosity is on file for c1ccccc1 + CCCCO ?
0.62

Return reported viscosity; argument: c1ccccc1 + CO
0.563

Need viscosity, item O=[N+]([O-])c1ccccc1 + CS(C)=O
1.851

###

Experiment: xn = mol fraction of the nth substance listed
Conditions: 298.15 K; 101 kPa; x2 = 0.5
Note to self: values exactly at 0.7 mPa·s are fulfilled. So viscosity at or above 0.7 mPa·s is fulfilled, below is not fulfilled.

Below, 3 molecules whose answers are already recorded.
O=[N+]([O-])c1ccccc1 + CS(C)=O	fulfilled
c1ccccc1 + CO	not fulfilled
C=C(C)C(=O)O + O=C1CCCCC1	fulfilled

Could you now look at the following molecule, please?
Reported viscosity at or above 0.7 mPa·s? CN(C)C=O + CO
not fulfilled

###

Measured viscosity of individual entries
Assay: xn = mol fraction of the nth substance listed
Conditions: 293.15 K; 101 kPa; x2 = 0.8
± gives the uncertainty stated by the source.

c1ccccc1 + CO	0.626 ± 0.013 mPa·s
CCCCCCCC + CCCCCCC	0.433 ± 0.012 mPa·s
CN(C)C=O + CO	0.64 ± 0.01 mPa·s

Name the reported viscosity value associated with the molecule CN(C)C=O + CCO
0.97 ± 0.013 mPa·s

###

Below, each entry is listed with its recorded viscosity.
Settings: 323.15 K; 100 kPa
Just the number please, in mPa·s, no unit attached.

c1ccccc1	0.435
O=[N+]([O-])c1ccccc1	1.303

Using the record for "CCCCCCCC" , report its viscosity.
0.385

What value of viscosity has been recorded for this entry: "CC12CC3CC(C)(C1)CC(C)(C3)C2"
1.502

Name the recorded viscosity for "CCCCCCCCCCCCCC[P+](CCCCCC)(CCCCCC)CCCCCC.N#C[N-]C#N" .
124

# input compound: C1CCC2CCCCC2C1 (stereo unspecified) ; wanted: its viscosity
1.457

###

Experiment: xn = mol fraction of the nth substance listed
Settings: 293.15 K; 101 kPa; x2 = 0.6
± gives the uncertainty stated by the source.
The entries below are paired with their reported viscosity.
Give the figure together with its unit, number first.

A selection of reference data follows.
CN(C)C=O + CCO	0.886 ± 0.012 mPa·s
c1ccccc1 + CO	0.626 ± 0.013 mPa·s
CCCCCCCC + CCCCCCC	0.458 ± 0.012 mPa·s

Next molecule, viscosity to be filled in.
Give the measured viscosity of CN(C)C=O + CO .
0.693 ± 0.01 mPa·s

###

Assay: xn = mol fraction of the nth substance listed
Conditions: 298.15 K; 101 kPa; x2 = 0.4
± gives the uncertainty stated by the source.
readout.type: viscosity
Give me the value, and tack the unit on after it.

c1ccccc1 + CO	0.561 ± 0.01 mPa·s
CN(C)C=O + CCO	0.821 ± 0.012 mPa·s
C=C(C)C(=O)O + O=C1CCCCC1	1.809 ± 0.042 mPa·s

Could you now look at the following compound, please?
Please look up its viscosity: O=[N+]([O-])c1ccccc1 + CS(C)=O
1.927 ± 0.018 mPa·s

###

Settings: 298.15 K; 101 kPa
readout.type: viscosity (mPa·s)
Hi! Could you send only the number? It should be in mPa·s, unit omitted.

Some compounds with recorded viscosity:
CCI	0.577
CC=Cc1ccc(O)c(OC)c1	26.7
CCCCCCCCCCCCCC[P+](CCCCCC)(CCCCCC)CCCCCC.N#C[N-]C#N	440

Okay, now this compound:
Bench note: what viscosity did COCC(C)O (centres undefined) show?
1.55

###

Assay: xn = mol fraction of the nth substance listed
Settings: 313.15 K; 101 kPa; x2 = 0.6
Readings of viscosity for the listed molecules
Hi! Could you send only the number? It should be in mPa·s, unit omitted.

Illustrative cases are given below, each with its answer.
CN(C)C=O + CCCO	0.8505
CN(C)C=O + CCO	0.67
CCCCCCCC + CCCCCCC	0.368

--- query ---
# input molecule: CN(C)C=O + CO ; wanted: its viscosity
0.54

###

Conditions: 293.15 K; 100 kPa
Entries and their viscosity values follow.
Give your result in mPa·s as a bare value.

For orientation, consider the following solved cases.
CCCCCCC	0.379
O=[N+]([O-])c1ccccc1	2.087
CCCCCCCCCCCCCC[P+](CCCCCC)(CCCCCC)CCCCCC.N#C[N-]C#N	603

Give the measured viscosity of C1CCC2CCCCC2C1 (stereo unspecified) .
2.507

If you can, please state the reported viscosity value of "CN(C)C=O" .
0.855

Endpoint output: viscosity of "CCn1cc[n+](CCOC)c1.O=S(=O)([N-]S(=O)(=O)C(F)(F)F)C(F)(F)F" . Value?
43.63

###

Test: xn = mol fraction of the nth substance listed
Details: 298.15 K; 101 kPa; x2 = 0.3
readout.type: viscosity (mPa·s)
Write the number in mPa·s without appending the unit.

CN(C)C=O + CCO	0.822

Query (compound): CN(C)C=O + CO ; field requested: viscosity
0.734

Look up viscosity: C=C(C)C(=O)O + O=C1CCCCC1
1.659

Entry under review: O=[N+]([O-])c1ccccc1 + CS(C)=O . Reported viscosity?
1.903

###

Conditions: 323.15 K; 101 kPa
Below, each entry is listed with its recorded viscosity.
Report as a plain number; the unit mPa·s is understood.

CCCCCCC	0.3039
O=[N+]([O-])c1ccccc1	1.192
CCCCCCCC	0.4049
C1CCC2CCCCC2C1 (stereo unspecified)	1.454
CCCCCO	1.784

Next molecule, please.
Any idea what its viscosity is? The molecule is "CCCCCCCCCCCCCC[P+](CCCCCC)(CCCCCC)CCCCCC.N#C[N-]C#N"
123

###

Test: xn = mol fraction of the nth substance listed
Conditions: 298.15 K; 101 kPa; x2 = 0.6
Each record here notes measured viscosity.
Value expressed in mPa·s; do not type the unit.

c1ccccc1 + CO	0.565
O=[N+]([O-])c1ccccc1 + CS(C)=O	1.962
CN(C)C=O + CCO	0.825

Pending molecule:
Which viscosity value is on record for CN(C)C=O + CO ?
0.649

Cited source: the CheMixHub viscosity set
